Test system: CEM cells HIV-1 protection, formazan growth assay
ASSAY REMARKS: NCI AIDS Antiviral Assay
pEC50: −log10 of the molar value. Where a SMILES comes first, the peptide text is derived from it.
Give pEC50 for every item shown.

State measured pEC50 of the molecule O=S(=O)(O)SCCNCCCCC1CCCCC1 with CEM cells HIV-1 protection, formazan growth assay.
< 3.70

State measured pEC50 of the molecule CCN(CC)c1ccc2cc(-c3nc4ccccc4c(=O)[nH]3)c(=N)oc2c1 with CEM cells HIV-1 protection, formazan growth assay.
< 4.00

State measured pEC50 of the molecule CC(NC(=O)CNC(=O)C(N)CO)C(=O)NC(CCC(N)=O)C(=O)NC(CCC(=O)O)C(=O)NC(C)C(=O)NC(CCC(=O)O)C(=O)NC(CCCCN)C(=O)NC(CCC(N)=O)C(=O)NC(CCCN=C(N)N)C(=O)NC(C(=O)NC(CC(N)=O)C(=O)NC(C)C(=O)NC(Cc1cnc[nH]1)C(=O)NC(CO)C(=O)O)C(C)O (configuration not stated) (H-SGAQEAEKQRTNAHS-OH; configuration not given here) with CEM cells HIV-1 protection, formazan growth assay.
< 4.00

State measured pEC50 of the molecule CC(=O)C(SSC(C(C)=O)C(C)=O)C(C)=O with CEM cells HIV-1 protection, formazan growth assay.
< 3.70

State measured pEC50 of the molecule N#CC1(Cl)CC2CC1C1N=NN(c3ccccc3)C21 (configuration not stated) with CEM cells HIV-1 protection, formazan growth assay.
< 3.70

State measured pEC50 of the molecule C[C@@H]1N[C@@H](C)Cc2c(-c3ccc(O)c4ccccc34)c(O)cc(O)c21 with CEM cells HIV-1 protection, formazan growth assay.
< 3.70

State measured pEC50 of the molecule COC(=O)C1=C(OC(C)=O)c2ccccc2CS1 with CEM cells HIV-1 protection, formazan growth assay.
< 3.87

State measured pEC50 of the molecule Oc1ccc(Oc2cc3c(cc2Oc2ccc(O)cc2)-c2nc-3nc3[nH]c(nc4nc(nc5[nH]c(n2)c2cc(Oc6ccc(O)cc6)c(Oc6ccc(O)cc6)cc52)-c2cc(Oc5ccc(O)cc5)c(Oc5ccc(O)cc5)cc2-4)c2cc(Oc4ccc(O)cc4)c(Oc4ccc(O)cc4)cc32)cc1 with CEM cells HIV-1 protection, formazan growth assay.
< 4.30

State measured pEC50 of the molecule c1cncc(C2N3CCCCC3[C@@H]3c4[nH]c5ccccc5c4CCN23)c1 (some centres not stated) with CEM cells HIV-1 protection, formazan growth assay.
< 4.01

State measured pEC50 of the molecule COC(=O)C(N)CSc1ccc([N+](=O)[O-])cc1[N+](=O)[O-] (configuration not stated) with CEM cells HIV-1 protection, formazan growth assay.
< 3.13

State measured pEC50 of the molecule N#Cc1c(NC(=O)CN2CCOCC2)c(C(=O)Nc2ccccc2)n2c1CCC2 with CEM cells HIV-1 protection, formazan growth assay.
< 3.70

State measured pEC50 of the molecule Cc1nc2ccccc2c(=O)n1NC(=S)Nc1ccccc1 with CEM cells HIV-1 protection, formazan growth assay.
< 3.94

State measured pEC50 of the molecule COC(=O)C(Cc1c[nH]c2ccccc12)NP(=O)(O)OCC1OC(n2cc(F)c(=O)[nH]c2=O)CC1O (configuration not stated) with CEM cells HIV-1 protection, formazan growth assay.
< 3.70

State measured pEC50 of the molecule CC(=O)N=C1N(/C=C2\C(=O)Oc3ccccc3C2=O)C(=O)/C(=C/c2cccc([N+](=O)[O-])c2)N1C with CEM cells HIV-1 protection, formazan growth assay.
< 4.00

State measured pEC50 of the molecule CCOC(=O)c1nc2cc(F)c(N3CCOCC3)cc2[nH]c1=O with CEM cells HIV-1 protection, formazan growth assay.
< 3.70

State measured pEC50 of the molecule CN(C)CCCNC(=O)c1cc(NC(=O)c2cc(NC(=O)c3cc(NC(=O)c4cncc(C(=O)Nc5cc(C(=O)Nc6cc(C(=O)Nc7cc(C(=O)NCCCN(C)C)n(C)c7)n(C)c6)n(C)c5)c4)cn3C)cn2C)cn1C with CEM cells HIV-1 protection, formazan growth assay.
< 4.00

State measured pEC50 of the molecule NC(C(=O)O)/C1=C/CCCCCC1 (configuration not stated) with CEM cells HIV-1 protection, formazan growth assay.
< 3.70

Data credit: PubChem BioAssay AID179
